All values here come from patent US10155792B2.

The reader will find reported Kd values listed item by item below.
target: human serum albumin (HSA) (Homo sapiens, UniProt P02768); assay: biochemical
Sequence (P02768 25-609): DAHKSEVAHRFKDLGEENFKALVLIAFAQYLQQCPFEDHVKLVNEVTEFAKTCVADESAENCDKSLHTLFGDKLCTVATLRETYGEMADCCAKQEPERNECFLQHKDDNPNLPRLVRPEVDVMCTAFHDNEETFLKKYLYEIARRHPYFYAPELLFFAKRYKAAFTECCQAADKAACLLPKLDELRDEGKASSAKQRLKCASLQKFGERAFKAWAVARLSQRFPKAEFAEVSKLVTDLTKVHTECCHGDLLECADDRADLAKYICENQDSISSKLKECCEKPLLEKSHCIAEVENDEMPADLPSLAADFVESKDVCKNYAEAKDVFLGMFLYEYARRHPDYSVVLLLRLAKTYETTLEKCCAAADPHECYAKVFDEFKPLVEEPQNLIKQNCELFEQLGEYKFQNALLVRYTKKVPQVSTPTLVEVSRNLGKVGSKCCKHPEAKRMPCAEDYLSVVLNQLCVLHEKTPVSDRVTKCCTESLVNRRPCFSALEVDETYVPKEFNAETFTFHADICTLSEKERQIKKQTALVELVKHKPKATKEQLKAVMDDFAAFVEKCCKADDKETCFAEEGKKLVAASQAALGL
Where no end group is shown, it is not given here.

residue-codes: GSSLAEAKEAANAELDSYGVSDFYKKLIDKAKTVEGVEALKDAILAALP [PEP12380]
Kd (pM): 7.5
//
residue-codes: GSSLAEAKEAANAELDSYGVSDFYKRLIDKAKTVEGVEALKDAILAALP [PEP07843, reference compound]
Kd (pM): 6.7

* * *

system: clostripain; construct: is a two-chain proteinase that can be isolated from Clostridium histolyticum; purchased Worthington LS001641; assay: Clostripain cleavage, LC/MS analysis; assay type: in vitro ADME, Clostridium histolyticum; details: Clostridium histolyticum, clostripain (isolated protease), pH 7.6, 5 U clostripain/mg, 4 h; read-out: remaining % ABD variant
Where no end group is shown, it is not given here.
quantity-kind: remaining at 4 h (%)

residue-codes: GSSLAEAKEAANAELDSYGVSDFYKNLIDKAKTVEGVEALKDAILAALP [PEP12379]
recorded-value: 71
--
residue-codes: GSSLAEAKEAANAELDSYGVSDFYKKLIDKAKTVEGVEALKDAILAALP [PEP12380]
recorded-value: 84
--
residue-codes: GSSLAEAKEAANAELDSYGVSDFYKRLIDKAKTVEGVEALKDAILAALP [PEP07843, reference compound]
recorded-value: 0
--
residue-codes: GSSLAEAKEAANAELDSYGVSDFYKSLIDKAKTVEGVEALKDAILAALP [PEP12381]
recorded-value: 60

* * *

tested on: clostripain; construct: is a two-chain proteinase that can be isolated from Clostridium histolyticum; purchased Worthington LS001641; test: Clostripain cleavage, LC/MS analysis; type: in vitro ADME, Clostridium histolyticum; conditions: Clostridium histolyticum, clostripain (isolated protease), pH 7.6, 0.2 U clostripain/mg, 2 min; read-out: remaining % ABD variant
Where no end group is shown, it is not given here.

residue-codes: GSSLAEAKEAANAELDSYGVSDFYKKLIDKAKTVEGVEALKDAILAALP [PEP12380]
remaining at 2 min, %: 100
--
residue-codes: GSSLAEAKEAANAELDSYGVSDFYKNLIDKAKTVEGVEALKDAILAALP [PEP12379]
remaining at 2 min, %: 100
--
residue-codes: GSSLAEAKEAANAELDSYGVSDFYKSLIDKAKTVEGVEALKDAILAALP [PEP12381]
remaining at 2 min, %: 101
--
residue-codes: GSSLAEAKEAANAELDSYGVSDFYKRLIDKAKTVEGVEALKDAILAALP [PEP07843, reference compound]
remaining at 2 min, %: 100

* * *

test system: clostripain; construct: is a two-chain proteinase that can be isolated from Clostridium histolyticum; purchased Worthington LS001641; test: Clostripain cleavage, LC/MS analysis; format: in vitro ADME, Clostridium histolyticum; conditions: Clostridium histolyticum, clostripain (isolated protease), pH 7.6, 5 U clostripain/mg, 22 h; read-out: remaining % ABD variant
Where no end group is shown, it is not given here.
remaining at 22 h for assorted sequences

residue-codes: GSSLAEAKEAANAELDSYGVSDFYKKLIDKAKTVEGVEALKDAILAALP [PEP12380]
remaining at 22 h: 30%
//
residue-codes: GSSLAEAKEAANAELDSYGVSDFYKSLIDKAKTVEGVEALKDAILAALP [PEP12381]
remaining at 22 h: 0%
//
residue-codes: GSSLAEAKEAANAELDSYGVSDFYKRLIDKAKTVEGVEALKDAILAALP [PEP07843, reference compound]
remaining at 22 h: 0%
//
residue-codes: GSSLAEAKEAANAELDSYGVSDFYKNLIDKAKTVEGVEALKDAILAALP [PEP12379]
remaining at 22 h: 4%
